Attribute: kon
# measuredTarget: T1, huCD47-D1-his (recombinant human CD47 extracellular region D1 with C-terminal His tag) (human (homo sapiens), UniProt Q08722 19-141)
# T1 construct: Expressed in HEK293 cells; analyte in the Biacore measurements and antigen of the phage panning; also called huCD47-his; hCD47; not shown: His tag added at the C-terminus
# experimentDescription: SPR BIAcore, by the method of Example 3 (antibody captured, huCD47-D1-his analyte)
readoutLabel: kon (M⁻¹ s⁻¹)

binder="hS2C3-IgG4 (humanized S2C3) (antibody, V domains shown) VH: QVQLVQSGAEVKKPGASVKVSCKASGYTFTDYYMHWVRQAPGQRLEWMGWINPSSGNTKYAQKFQDRVTMTRDTSTSTVYMELSSLRSEDTAVYYCARREEDYFDYWGQGTLVTVSS VL: DIVMTQSPDSLAVSLGERATINCKSSQSLLYPSNKKNYLTWYQQKPGQPPKLLIYWASTRESGVPDRFSGSGSGTDFTLTISSLQAEDVAVYYCQEYYAYPLSFGQGTKLEIK" readoutlabel=kon unitssymbol="M⁻¹ s⁻¹" testresult=1.09e+06
binder="S2C3-IgG4 (mouse-human chimeric antibody, human IgG4-kappa) (antibody, V domains shown, also called 人-鼠嵌合单抗S2C3) VH: QIQLQQSGPELVKPGASVKISCKASGYTFTDYYMHWVKQRPGQGLEWIGWINPSSGNTKYAQKFQDKATLTVATSSSTAYMQLSSLTSEDTAVYFCARREEDYFDYWGQGTLVTVSS VL: DIVMSQSPSSLAVSVGEKVTMSCKSSQSLLYPSNKKNYLTWYQQKPGQSPKLLIYWASTRESGVPDRFTGSGSGTDFTLTISSVKAEDLAVYYCQEYYAYPLSFGAGTKLEIKR" readoutlabel=kon unitssymbol="M⁻¹ s⁻¹" testresult=1.11e+06
binder="hS4D12-IgG4 (humanized S4D12) (antibody, V domains shown) VH: QVQLVQSGAEVKKPGASVKVSCKASGYTFTNYWMHWVRQRPGQGLEWIGVIAPSDNYTNYNQKFQGRVTMTVDTSTSTVYMELSSLRSEDTAVYYCTKGGKYSMDYWGQGTTVTVSS VL: DIVMTQTPLSLPVTPGEPASISCRSSQSIVHSNGNTYLEWYLQKPGQSPQLLIYKVSNRFSGVPDRFSGSGSGTDFTLKISRVEAEDVGVYYCFQGSHVPFTFGQGTKLEIK" readoutlabel=kon unitssymbol="M⁻¹ s⁻¹" testresult=1.22e+06
binder="S4D12-IgG4 (mouse-human chimeric antibody, human IgG4-kappa) (antibody, V domains shown, also called 人-鼠嵌合单抗S4D12) VH: QVQLQQPGAELVKPGASVKMSCKASGYTFTNYWMHWVKQRPGQGLEWIGVIAPSDNYTNYNQKFQGKATLTVDTSSSTAYMQLSSLTSEDSAVYYCTKGGKYSMDYWGQGTSVTVSS VL: DVLMTQTPLSLPVSLGDQASISCRSSQSIVHSNGNTYLEWYLQKPGQSPKLLIYKVSNRFSGVPDRFSGSGSGTDFTLKISRVEAEDLGVYYCFQGSHVPFTFGSGTKLEIKR" readoutlabel=kon unitssymbol="M⁻¹ s⁻¹" testresult=1.28e+06
